Tested on: MT2
EXPERIMENT: Cytotoxicity against human MT2 cells assessed as reduction in cell viability incubated for 4 days by XTT assay
Format: cell-based
ASSAY_SETUP: mt2, 96 h, time 4 day
# CC50 annotations

Query: Requested field: CC50. Item: `NC[C@H](NC(=O)c1ccc(-c2cc(F)c(Cl)c(F)c2)[nH]1)c1nc(CO)c(CO)s1`
Result: 96.7 µM

Query: Requested field: CC50. Item: `CNC[C@@H](NC(=O)c1ccc(-c2cc(F)c(Cl)c(F)c2)[nH]1)c1nc(CO)cs1`
Result: 24 µM

Query: Requested field: CC50. Item: `CNC[C@@H](NC(=O)c1ccc(-c2ccc(C(F)(F)F)cc2)[nH]1)c1nc(CO)cs1`
Result: 19.8 µM

Query: Requested field: CC50. Item: `NC[C@@H](NC(=O)c1ccc(-c2ccc(C(F)(F)F)cc2)[nH]1)c1nc(CO)cs1`
Result: 15.1 µM

Query: Requested field: CC50. Item: `NC[C@@H](NC(=O)c1ccc(-c2cc(F)c(Cl)c(F)c2)[nH]1)c1nc(CO)c(CO)s1`
Result: 89.9 µM

Query: Requested field: CC50. Item: `NC[C@H](NC(=O)c1ccc(-c2ccc(C(F)(F)F)c(F)c2)[nH]1)c1ncc(CO)s1`
Result: 25.6 µM

Query: Requested field: CC50. Item: `Cc1c(F)cc(-c2ccc(C(=O)N[C@H](CN)c3ncc(CO)s3)[nH]2)cc1F`
Result: 26.8 µM

Query: Requested field: CC50. Item: `NC[C@H](NC(=O)c1ccc(-c2ccc(C(F)(F)F)cc2)[nH]1)c1nc(CO)cs1`
Result: 16.3 µM

Query: Requested field: CC50. Item: `Cc1c(F)cc(-c2ccc(C(=O)N[C@@H](CN)c3ncc(CO)s3)[nH]2)cc1F`
Result: 27 µM

Query: Requested field: CC50. Item: `NC[C@@H](NC(=O)c1ccc(-c2ccc(C(F)(F)F)cc2)[nH]1)c1ncc(CO)s1`
Result: 32 µM

Query: Requested field: CC50. Item: `Cc1c(F)cc(-c2ccc(C(=O)N[C@@H](CN)c3nc(CO)cs3)[nH]2)cc1F`
Result: 25.5 µM

Query: Requested field: CC50. Item: `CNC[C@H](NC(=O)c1ccc(-c2cc(F)c(Cl)c(F)c2)[nH]1)c1nc(CO)cs1`
Result: 18.8 µM

Query: Requested field: CC50. Item: `NC[C@@H](NC(=O)c1ccc(-c2cc(F)c(Cl)c(F)c2)[nH]1)c1nc(CO)cs1`
Result: 29.6 µM

Query: Requested field: CC50. Item: `CC(C)(O)c1csc([C@@H](CN)NC(=O)c2ccc(-c3cc(F)c(Cl)c(F)c3)[nH]2)n1`
Result: 18 µM
